MEASUREMENT_TARGET: T1, human mature TGFβ1 (Homo sapiens, UniProt P01137)
T1 construct: Transforming Growth Factor-beta 1, human, mature form (cut from the precursor); also called TGFb1; source: bought: PeproTech
T1 sequence (P01137 279-390): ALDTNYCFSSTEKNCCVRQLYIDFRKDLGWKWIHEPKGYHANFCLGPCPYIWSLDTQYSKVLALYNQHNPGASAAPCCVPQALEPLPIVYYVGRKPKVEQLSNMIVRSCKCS
TEST_NAME: SPR; Biacore T200; antibody captured on a Protein A sensor chip (about 90 RU); mature TGFβ isoform injected, five-fold dilutions 0.008 nM to 5 nM; HBS-EP pH 7.4, 150 mM NaCl; 37 °C; 100 μl/min; 3 min association, 60 min dissociation; one-to-one Langmuir model, global fit
RECORDED_CONDITIONS: both partners purified
pKd: −log10 of the molar value.

{"BINDER": "humanized 4A11 variant 2 (antibody, V domains shown, rbt4A11 CDRs (Kabat and Chothia) and rabbit Vernier residues (VH positions 2, 24, 37, 48, 49, 67, 71, 78, 91, 105) grafted on human germline IGHV3-48*01; has R19, Y79, Q81 (Kabat numbering); rbt4A11 CDRs and rabbit Vernier residues (VL positions 2, 4, 36, 43, 58) grafted on human germline IGKV1D-39*01; human IgG1; also called h4A11.v2; v2; source: Expi293F, transient, purified (Protein A, SEC)) VH: EQQLVESGGGLVQPGGSLRLSCAVSGFSLSSYTVNWVRQAPGKGLEWIGYISYGGSAYYASWANGRFTISKDSAKNSVYLQMNSLRAEDTAVYFCARHMQVGGAPTGSMAAFDPWGPGTLVTVSS VL: DAQLTQSPSSLSASVGDRVTITCQSSQSVYNNNYLSWFQQKPGKPPKLLIYGASTLTSGVPSRFSGSGSGTDFTLTISSLQPEDFATYYCAGGYSGSSDKYAFGGGTKVEIK", "pKd": "< 8.30"}
{"BINDER": "humanized 4A11 variant 8 (antibody, V domains shown, as the VH of m12 (h4A11.v7): rbt4A11 CDRs and rabbit Vernier residues grafted on human germline IGHV4-59*06; as the VL of m11 (h4A11.v6): rbt4A11 CDRs and rabbit Vernier residues grafted on human germline IGKV2-24*01; human IgG1; also called h4A11.v8; v8; source: Expi293F, transient, purified (Protein A, SEC)) VH: EQQLQESGPGLVKPSETLSLTCTVTGFSLSSYTVNWVRQPAGKGLEWIGYISYGGSAYYASWANGRFTISKDSSKNQVSLKLSSVTAADTAVYFCARHMQVGGAPTGSMAAFDPWGPGTLVTVSS VL: DAVLTQTPLSSPVTLGQPASISCQSSQSVYNNNYLSWFQQRPGQPPRLLIYGASTLTSGVPDRFSGSGAGTDFTLKISRVEAEDVGVYYCAGGYSGSSDKYAFGGGTKVEIK", "pKd": "< 8.30"}
{"BINDER": "rabbit monoclonal antibody 4A11 (antibody, V domains shown, VH of rbt4A11; VL of rbt4A11; Parental rabbit antibody; also called rbt4A11) VH: QSLEESGGRLVTPGTPLTLTCTVSGFSLSSYTVNWVRQAPGKGLEWIGYISYGGSAYYASWANGRFTISKTSATVDLKITSPTTEDTATYFCARHMQVGGAPTGSMAAFDPWGPGTLVTVSS VL: AAVLTQTPSPVSAAVGGTVSISCQSSQSVYNNNYLSWFQQKPGQPPKLLIYGASTLTSGVPSRFKGSGSGTQFTLTISDVQCDDAATYYCAGGYSGSSDKYAFGGGTEVVVK", "pKd": "< 8.30"}

Hey, just so you know, these numbers are from paper PMC8595303.
